system: UACC-62; test: NCI tumour cell line growth inhibition, 48 h
Activity calls are given as the source filed them. Rule as the data show it: active = GI50 up to about 1.1 µM and inactive = higher.
measure: GI50

Here is how some compounds turned out for GI50.
- compound: "OC/C=C(\\I)CCCOCOCc1ccccc1"
  value-observed: "34.6 µM (inactive)"
- compound: "Sc1cnnc2ccc(Br)cc12"
  value-observed: "32.3 µM (inactive)"

// batch mode: one GI50 value per listed entry
1. C=C[C@@]1(C)CC(=O)[C@]2(O)[C@@]3(C)[C@@H](OC(C)=O)CCC(C)(C)[C@@H]3[C@H](O)[C@H](OC(C)=O)[C@@]2(C)O1
2. CC(C)(C)OC(=O)N1CC(O)O[C@H](c2ccccc2)[C@@H]1c1ccccc1 (stereo partly specified)
3. C=CCN(c1cc(OC)c2[nH]cc(C)c2c1[N+](=O)[O-])S(C)(=O)=O
4. Cn1nc(-c2cccc(-c3nn(C)/c(=N\CCO)s3)n2)s/c1=N/CCO
5. COC(=O)C(Cc1ccc(N(C)C)cc1)(NC(=O)c1ccccc1)P(=O)(OC)OC (stereo unspecified)
6. CCN(CC)CCCNc1nc(=O)[nH]c(C)c1C(=O)Nc1ccc2c(c1)c1ccccc1n2CC

Result ::
["> 100 µM (inactive)", "14.3 µM (inactive)", "> 100 µM (inactive)", "> 100 µM (inactive)", "> 100 µM (inactive)", "> 100 µM (inactive)"]

# map each compound to its GI50
1. N=C(N)c1ccc(/N=N\c2c(O)ccc3c2[nH]c2ccccc23)cc1
2. CCCCCCCCCCC(O)C1CCC(C(O)CCC(O)C2CCC(CCCCCCC[C@H](O)CC3=C[C@@H](C)OC3=O)O2)O1 (stereo partly specified)
3. O=C(N/N=C1\C(=O)Nc2c(Cl)cc(Cl)cc21)C(=O)Nc1cccc(C(F)(F)F)c1

Result ::
1. 54.2 µM (inactive)
2. 4.02 µM (inactive)
3. > 100 µM (inactive)

Parameters: items (list). Returns: GI50 for each item.
1. COc1ccccc1/C=N/N=C(\N)NO
2. O=C(O)c1cccc(/[As]=[As]\c2cccc(C(=O)O)c2)c1 (stereo unspecified)
3. O=C1c2ccccc2N2Oc3ccccc3C12c1ccccc1 (stereo unspecified)
4. c1ccc2c(c1)[Se]c1ccccc1[Se]2
5. CC(C)(C)OC(=O)NCCCCC1NC(=O)[C@@H]2Cc3c([nH]c4ccccc34)C(C3CCCCC3)N2C1=O (stereo partly specified)
6. COC1OC(COCc2ccc(Cl)cc2)C(OCc2ccc(Cl)cc2)C1O (stereo unspecified)
7. CC(C)(C)[C@@H]1NC(=O)CN1C(=O)OCc1ccccc1

Result ::
4.21 µM (inactive)
33.3 µM (inactive)
> 100 µM (inactive)
> 100 µM (inactive)
32.4 µM (inactive)
16.2 µM (inactive)
> 100 µM (inactive)

# per-item lookup of GI50; items listed below
1. O=C(CCn1[nH]c(=O)c(Cl)c(Cl)c1=O)NO
2. N#CC12COC3(CCCCC3C1(C#N)C#N)OC2=N (stereo unspecified)
3. Cc1ccc(NC(=O)/C(=N/NC(=O)CC#N)C2C(=O)N(c3ccccc3)N=C2N)cc1C (stereo unspecified)

Result ::
1. > 100 µM (inactive)
2. 14.7 µM (inactive)
3. > 100 µM (inactive)
